Cited source: ChEMBL document CHEMBL5260802

- METHOD DESCRIPTION: Protein binding in rat plasma at 1 uM incubated for 6 hrs by LC-MS/MS based rapid equilibrium dialysis method
- Format: ADME, cell-free
- CONDITION INFO: read-out: PPB (converted)
MEASURED PROPERTY: fraction unbound at 6 h, 1 µM

1) CN1CCCC[C@H](N(c2cc(C#CC(C)(C)C)sc2C(=O)O)C(=O)[C@H]2CC[C@H](C)CC2)C1=O	0.008
2) CN1CCCC[C@@H](N(c2cc(C#CC(C)(C)C)sc2C(=O)O)C(=O)[C@H]2CC[C@H](C)CC2)C1=O	0.002
3) CN1CCC[C@H](N(c2cc(C#CC(C)(C)C)sc2C(=O)O)C(=O)[C@H]2CC[C@H](C)CC2)C1=O	0.011
4) CN1CC[C@@H](N(c2cc(C#CC(C)(C)C)sc2C(=O)O)C(=O)[C@H]2CC[C@H](C)CC2)C1=O	0.002
5) CN1CCC[C@@H](N(c2cc(C#CC(C)(C)C)sc2C(=O)O)C(=O)[C@H]2CC[C@H](C)CC2)C1=O	0.0004
6) CN1CC[C@H](N(c2cc(C#CC(C)(C)C)sc2C(=O)O)C(=O)[C@H]2CC[C@H](C)CC2)C1=O	0.019
